target: engineered OX2R carrying an additional amino-terminal Avi-tag, biotinylated (Homo sapiens, UniProt O43614, residues V261–A291 deleted, biotin on the Avi-tag (BirA biotin-protein ligase))
Sequence (O43614 other isoform, or with tags, fused parts or gaps residues V261–A291 deleted | residues V261–A291 deleted): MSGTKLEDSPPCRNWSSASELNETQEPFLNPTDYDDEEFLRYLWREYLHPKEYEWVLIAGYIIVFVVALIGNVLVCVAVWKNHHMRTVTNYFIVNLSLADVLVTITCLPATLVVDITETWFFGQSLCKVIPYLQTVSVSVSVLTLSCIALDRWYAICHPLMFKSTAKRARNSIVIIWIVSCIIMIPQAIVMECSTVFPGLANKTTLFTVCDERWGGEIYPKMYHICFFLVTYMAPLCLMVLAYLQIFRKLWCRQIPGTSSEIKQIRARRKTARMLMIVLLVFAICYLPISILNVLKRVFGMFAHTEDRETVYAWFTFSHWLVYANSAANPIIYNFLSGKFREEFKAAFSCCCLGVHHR
Measure: binding result

| Binder | Assay Value |
| --- | --- |
| 6 (VHH) VHH: QVQLVESGGGSVQAGGSLRLSCAASGNISAIGYLGWFRQAPGKEREGVAALVTWFGKTYYADSVKGRFTVSLDNAKNTVYLQMNSLKPEDTALYYCAAATYGNKNPLTDSYYSYWGQGTQVTVS | binds |
| 35 (VHH) VHH: QVQLVESGGGLVQAGGSLRLSCAASGFPVRWKSMAWYRQAPGKEREWVAAISSYGFWTEYADSVKGRFTISRDNAKNTVYLQMNSLKPEDTAVYYCIVHVGVSYRGQGTQVTVS | binds |
